Biological target: ATPase family AAA domain-containing protein 2 (Homo sapiens)
Sequence (Q6PL18 whole entry): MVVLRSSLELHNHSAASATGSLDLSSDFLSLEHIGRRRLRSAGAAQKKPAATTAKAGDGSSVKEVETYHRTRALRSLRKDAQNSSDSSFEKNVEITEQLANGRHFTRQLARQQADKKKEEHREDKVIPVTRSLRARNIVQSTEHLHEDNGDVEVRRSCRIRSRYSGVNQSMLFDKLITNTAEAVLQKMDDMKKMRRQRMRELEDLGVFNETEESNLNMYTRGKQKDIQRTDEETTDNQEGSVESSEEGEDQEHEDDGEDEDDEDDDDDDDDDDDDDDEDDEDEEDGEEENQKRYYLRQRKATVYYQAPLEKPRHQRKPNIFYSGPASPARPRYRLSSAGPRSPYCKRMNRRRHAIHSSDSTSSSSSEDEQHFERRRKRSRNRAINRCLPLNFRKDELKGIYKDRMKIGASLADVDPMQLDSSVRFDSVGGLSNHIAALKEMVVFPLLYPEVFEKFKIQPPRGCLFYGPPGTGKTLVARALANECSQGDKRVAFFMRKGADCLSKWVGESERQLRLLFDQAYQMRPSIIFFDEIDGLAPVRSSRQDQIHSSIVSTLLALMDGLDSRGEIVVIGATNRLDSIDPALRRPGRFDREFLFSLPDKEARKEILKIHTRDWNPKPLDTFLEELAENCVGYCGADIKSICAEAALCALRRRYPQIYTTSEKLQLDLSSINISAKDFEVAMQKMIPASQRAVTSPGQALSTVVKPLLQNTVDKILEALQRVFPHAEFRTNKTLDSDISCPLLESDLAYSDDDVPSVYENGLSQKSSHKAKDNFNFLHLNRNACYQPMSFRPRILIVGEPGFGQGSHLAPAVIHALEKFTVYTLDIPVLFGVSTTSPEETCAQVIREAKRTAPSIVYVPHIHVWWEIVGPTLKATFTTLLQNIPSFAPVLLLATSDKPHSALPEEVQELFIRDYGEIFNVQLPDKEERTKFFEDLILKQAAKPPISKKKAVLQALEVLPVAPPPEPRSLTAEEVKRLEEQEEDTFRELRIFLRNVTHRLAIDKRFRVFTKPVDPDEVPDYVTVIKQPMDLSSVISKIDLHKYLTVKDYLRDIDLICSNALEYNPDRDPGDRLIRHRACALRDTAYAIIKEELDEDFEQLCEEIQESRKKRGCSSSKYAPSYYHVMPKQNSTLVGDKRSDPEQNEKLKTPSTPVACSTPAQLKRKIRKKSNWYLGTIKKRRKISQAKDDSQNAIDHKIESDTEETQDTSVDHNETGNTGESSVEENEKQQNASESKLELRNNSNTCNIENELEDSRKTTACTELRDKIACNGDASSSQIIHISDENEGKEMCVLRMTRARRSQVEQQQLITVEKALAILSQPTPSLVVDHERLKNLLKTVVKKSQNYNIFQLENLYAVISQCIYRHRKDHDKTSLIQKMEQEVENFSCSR
Can you tell me IC50 for the items I'm about to list?

Give its IC50 value. Item: O=C(CN1C(=O)CCC1=O)Nc1ccc(Cl)c(S(=O)(=O)N2CCCC2)c1
1.26 µM

Name the recorded IC50 for CC(C)N1CCc2c(nnn2CC(=O)Nc2ccc(Br)c(S(=O)(=O)N3CC[C@H](C)C3)c2)C1 .
2 µM

Query (compound): CC1(C)NC(=O)N(CC(=O)Nc2ccc(Cl)c(S(=O)(=O)N3CCCC3)c2)C1=O ; field requested: IC50
1.58 µM

Need IC50, item C[C@H]1CCN(S(=O)(=O)c2cc(NC(=O)Cn3ccnn3)ccc2Br)C1
3.98 µM

Recorded IC50 for C[C@H]1CCN(S(=O)(=O)c2cc(NC(=O)Cn3c(=O)oc4ccccc43)ccc2Br)C1 , please?
2 µM

Consider the compound shown here: O=C(CN1C(=O)CNC1=O)Nc1ccc(Cl)c(S(=O)(=O)n2ccnc2)c1 What is its recorded IC50?
> 100 µM

Query (compound): COCc1cn(CC(=O)Nc2ccc(Br)c(S(=O)(=O)N3CC[C@H](C)C3)c2)nn1 ; field requested: IC50
2.51 µM

Please report the recorded IC50 for CN1CCc2c(nnn2CC(=O)Nc2ccc(Br)c(S(=O)(=O)N3CC[C@@H](C4CC4)C3)c2)C1 .
3.16 µM

Dear colleague, I am looking for the recorded IC50 of the following compound: C[C@H]1CCN(S(=O)(=O)c2cc(NC(=O)Cn3nnc4c3CCN(C)C4)ccc2Br)C1
2 µM

So what's the measured IC50 for this one? CN1CCc2c(nnn2CC(=O)Nc2ccc(Cl)c(S(=O)(=O)N3CC[C@@H](C4CC4)C3)c2)C1
6.31 µM

What does the record list as IC50 for CCCc1cnnn1CC(=O)Nc1ccc(Br)c(S(=O)(=O)N2CC[C@H](C)C2)c1 ?
3.16 µM

# IC50 lookup, item CC(=O)N1CCc2c(nnn2CC(=O)Nc2ccc(Br)c(S(=O)(=O)N3CC[C@H](C)C3)c2)C1
1.58 µM
